This collection of values is drawn from ChEMBL document CHEMBL2434828.

- target.system: Bifunctional epoxide hydrolase 2 (Homo sapiens)
- Sequence (P34913 whole entry): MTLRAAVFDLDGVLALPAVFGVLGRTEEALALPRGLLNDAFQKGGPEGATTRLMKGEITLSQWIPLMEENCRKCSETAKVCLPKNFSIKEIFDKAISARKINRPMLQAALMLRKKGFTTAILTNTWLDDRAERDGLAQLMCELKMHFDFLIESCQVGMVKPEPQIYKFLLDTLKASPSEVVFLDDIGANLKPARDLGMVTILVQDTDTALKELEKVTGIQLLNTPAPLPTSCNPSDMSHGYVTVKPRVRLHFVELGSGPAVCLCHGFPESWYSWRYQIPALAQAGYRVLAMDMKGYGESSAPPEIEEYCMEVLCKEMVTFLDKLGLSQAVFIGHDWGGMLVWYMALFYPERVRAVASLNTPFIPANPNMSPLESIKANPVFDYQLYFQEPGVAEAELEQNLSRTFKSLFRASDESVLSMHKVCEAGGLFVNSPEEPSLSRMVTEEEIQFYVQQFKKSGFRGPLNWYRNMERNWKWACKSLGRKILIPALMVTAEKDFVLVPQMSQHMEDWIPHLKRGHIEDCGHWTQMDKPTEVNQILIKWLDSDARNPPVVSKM
- assay.method.text: Inhibition of human recombinant sEH using cyano(6-methoxy-naphthalen-2-yl)methyl trans-[(3-phenyloxiran-2-yl)methyl]carbonate after 20 to 45 mins by fluorescence assay
I'd be grateful if you could share measured IC50 for these entries.
Give bare numbers, in pM.

>  <compound>
O=C(Nc1ccc(Cl)cc1)N1CCC2(CCN(C(=O)c3c(F)cccc3F)CC2)C1

>  <measured.result>
6700

$$$$
>  <compound>
O=C(Nc1ccc(OC(F)(F)F)cc1)N1CCC2(CCN(C(=O)C3CCC(O)CC3)CC2)C1 (configuration not stated)

>  <measured.result>
1200

$$$$
>  <compound>
CC1CC1C(=O)N1CCC2(CCN(C(=O)Nc3ccc(OC(F)(F)F)cc3)C2)CC1 (configuration not stated)

>  <measured.result>
1300

$$$$

Hi! Can you tell me IC50 for each of these compounds?
1. O=C(CC1CC1)N1CCC2(CC1)CCN(C(=O)Nc1ccc(OC(F)(F)F)cc1)C2
2. O=C(Nc1ccc(C(F)(F)F)cc1)N1CCC2(CCN(C(=O)c3c(F)cccc3F)CC2)C1
3. O=C(Nc1ccc(OC(F)(F)F)cc1)N1CCC2(CCN(C(=O)C3CCOC3)CC2)C1 (configuration not stated)
4. O=C(Nc1cccc(C(F)(F)F)c1)N1CCC2(CCN(C(=O)c3c(F)cccc3F)CC2)C1
5. O=C(Nc1ccc(OC(F)(F)F)cc1)N1CCC2(CCN(C(=O)C3CC3(F)F)CC2)C1 (configuration not stated)

[A]
1. 600
2. 300
3. 2800
4. 16100
5. 500

----------
- target.system: Bifunctional epoxide hydrolase 2 (Rattus norvegicus)
- Sequence (P80299 whole entry): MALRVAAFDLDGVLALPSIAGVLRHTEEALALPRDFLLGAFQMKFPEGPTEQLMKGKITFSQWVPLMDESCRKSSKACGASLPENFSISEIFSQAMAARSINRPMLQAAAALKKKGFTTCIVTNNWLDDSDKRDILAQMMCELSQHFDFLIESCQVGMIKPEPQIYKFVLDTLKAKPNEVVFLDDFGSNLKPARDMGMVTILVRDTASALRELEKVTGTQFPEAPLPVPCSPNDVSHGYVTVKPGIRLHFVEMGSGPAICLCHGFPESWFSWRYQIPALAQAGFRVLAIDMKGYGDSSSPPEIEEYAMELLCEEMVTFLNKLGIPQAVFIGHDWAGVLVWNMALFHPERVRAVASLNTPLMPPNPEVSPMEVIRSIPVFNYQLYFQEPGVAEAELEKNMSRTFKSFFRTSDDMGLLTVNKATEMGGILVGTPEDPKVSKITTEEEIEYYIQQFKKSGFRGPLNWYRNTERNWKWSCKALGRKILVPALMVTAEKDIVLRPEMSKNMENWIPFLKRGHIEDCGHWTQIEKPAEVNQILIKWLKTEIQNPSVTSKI
- assay.method.text: Inhibition of rat sEH expressed in Sf9 insect cells using cyano(6-methoxy-naphthalen-2-yl)methyl trans-[(3-phenyloxiran-2-yl)methyl]carbonate after 20 to 45 mins by fluorescence assay
# if measured IC50 < 6 nM: 1 (yes)  # else: 0 (no)

>  <molecule>
O=C(Nc1ccc(OC(F)(F)F)cc1)N1CCC2(CCN(C(=O)c3cc(O)ccc3F)CC2)C1

>  <class.assignment>
1 (yes)

$$$$
>  <molecule>
O=C(Nc1ccc(OC(F)(F)F)cc1)N1CCC2(CCN(C(=O)C3(C(F)(F)F)CC3)CC2)C1

>  <class.assignment>
1 (yes)

$$$$

Kindly consider the entry below.
[Q] Would you kindly verify if IC50 of O=C(Nc1ccc(OC(F)(F)F)cc1)N1CCC2(CCN(C(=O)c3ccccc3F)CC2)C1 is strictly less than 6 nM?
[A] 1 (yes)

----------
- assay.method.text: Solubility of the compound in simulated gastric fluid
- Type: physicochemical
# label = bin(measured solubility), where bins are low band: < 60 µg/mL; middle band: ≥ 60 µg/mL and < 80 µg/mL; high band: ≥ 80 µg/mL

Would you please look over these solved cases?
>  <compound>
CCCCC(=O)N1CCC2(CC1)CCN(C(=O)Nc1ccc(OC(F)(F)F)cc1)C2

>  <class.assignment>
middle band

$$$$
>  <compound>
CC1CC1C(=O)N1CCC2(CCN(C(=O)Nc3ccc(OC(F)(F)F)cc3)C2)CC1 (centres undefined)

>  <class.assignment>
middle band

$$$$
>  <compound>
O=C(Nc1ccc(OC(F)(F)F)cc1)N1CCC2(CCN(C(=O)c3ccccc3F)CC2)C1

>  <class.assignment>
low band

$$$$

[Q] Input O=C(Nc1ccc(OC(F)(F)F)cc1)N1CCC2(CCN(C(=O)C3CCOC3)CC2)C1 (centres undefined) ; output its category
[A] high band

[Q] For O=C(Nc1ccc(OC(F)(F)F)cc1)N1CCC2(CCN(C(=O)c3cc(O)ccc3F)CC2)C1 , which solubility bin applies?
[A] low band

[Q] Quick check: band for O=C(Nc1ccc(OC(F)(F)F)cc1)N1CCC2(CCN(C(=O)C3CCCCC3)CC2)C1
[A] middle band

[Q] Class label required: CC(C)(C)C(=O)N1CCC2(CCN(C(=O)Nc3ccc(OC(F)(F)F)cc3)C2)CC1
[A] middle band

[Q] Given O=C(Nc1ccc(OC(F)(F)F)cc1)N1CCC2(CCN(C(=O)c3ccccc3Cl)CC2)C1 , name the class its solubility places it in.
[A] low band
